# tested.target: uPAR (Homo sapiens, UniProt Q03405)
# Sequence (Q03405 23-305 limits assumed): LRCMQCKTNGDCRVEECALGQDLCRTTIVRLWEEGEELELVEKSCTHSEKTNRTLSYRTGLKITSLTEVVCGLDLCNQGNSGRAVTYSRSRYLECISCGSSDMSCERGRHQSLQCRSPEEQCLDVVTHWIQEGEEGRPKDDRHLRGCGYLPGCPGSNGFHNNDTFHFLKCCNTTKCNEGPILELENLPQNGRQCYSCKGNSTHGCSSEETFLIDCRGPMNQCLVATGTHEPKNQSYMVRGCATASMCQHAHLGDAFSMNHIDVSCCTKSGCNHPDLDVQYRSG
# assay.comment: ELISA test: inhibition of human urokinase (uPA) binding to its specific receptor uPAR
# experimental.conditions: test substance preincubated 30 min at room temperature
result.type: IC50

Exercise: Value lookup for IC50; key = "CC(C)=C1Oc2cccc(OC/C=C\CN3CCC(NC(=O)c4ccc(Cl)c(Cl)c4)CC3)c2C1=O"
Solution: > 19.4 nM
